Tested on: mouse organs
protocolDetails: In vivo activity screening in mice: organ mean total flux (p/s) of luciferase activity after injection of F2 LNP pools (Table 6, FIG. 7A-7C)
conditionDetails: Mouse 3, dose 1.0 mg/kg, luciferase mRNA
Marks after values point to notes of the source that are not given here.
For each record, write down the corresponding Organ Mean Total Flux Liver.

Consider the reported Organ Mean Total Flux Liver for these compounds:
[ask] Please report the recorded Organ Mean Total Flux Liver for CCCCC/C=C\CCOC(=O)CCCCC(=O)OCC(COC(=O)CCCCC(=O)OCC/C=C\CCCCC)(COC(=O)CCC(CCCCCC)OC(=O)NCCN1CCCC1)COC(=O)CC12CC3CC(CC(C3)C1)C2 (centres unmarked) [Compound 14] .
[reply] 4307 p/s (×10^6)

[ask] Bench note: what Organ Mean Total Flux Liver did CCCCCCC(CCC(=O)OCC(COC(=O)CCCCCC(=O)OCCC(CCCCC)CCCCC)(COC(=O)CCCCCC(=O)OCCC(CCCCC)CCCCC)COC(=O)CCCCCC(=O)OCCC(CCCCC)CCCCC)OC(=O)NCCN1CCCC1 (centres unmarked) [Compound 52] show?
[reply] 12143 p/s (×10^6)

[ask] Give its Organ Mean Total Flux Liver value. Item: CCCCCCCCCOC(=O)CCCCC(=O)OCC(COC(=O)CCCCC(=O)OCCCCCCCCC)(COC(=O)CCCCC(=O)OCCCCCCCCC)COC(=O)CCC(CCCCCC)OC(=O)NCCN1CCCC1 (centres unmarked) [Compound 50]
[reply] 2413 p/s (×10^6)

[ask] // query Organ Mean Total Flux Liver value for entry CCCCCCC(CCC(=O)OCC(COC(=O)CCCCCOC(=O)C(CCCC)CCCCCC)(COC(=O)CCCCCOC(=O)C(CCCC)CCCCCC)COC(=O)CC12CC3CC(CC(C3)C1)C2)OC(=O)NCCN1CCCC1 (centres unmarked) [Compound 58]
[reply] 1493 p/s (×10^6)

[ask] Looking for the measured Organ Mean Total Flux Liver of CCCCCCC(CCC(=O)OCC(COC(=O)CCCCCCOC(=O)C(CCCC)CCCCCC)(COC(=O)CCCCCCOC(=O)C(CCCC)CCCCCC)COC(=O)CC12CC3CC(CC(C3)C1)C2)OC(=O)NCCN1CCCC1 (centres unmarked) [Compound 57] , can you help?
[reply] 25033 p/s (×10^6)

# batch: return Organ Mean Total Flux Liver for each of the 3 compounds below
1. CCCCCCC(CCC(=O)OCC(COC(=O)CCCC(=O)OCCC(CCCCC)CCCCC)(COC(=O)CCCC(=O)OCCC(CCCCC)CCCCC)COC(=O)CCCC(=O)OCCC(CCCCC)CCCCC)OC(=O)NCCN1CCCC1 (centres unmarked) [Compound 54]
2. CCCCCCC(CCC(=O)OCC(COC(=O)CCCCC(=O)OCCC(CCCC)CCCCC)(COC(=O)CCCCC(=O)OCCC(CCCCC)CCCCC)COC(=O)CCCCC(=O)OCCC(CCCCC)CCCCC)OC(=O)NCCN1CCCC1 (centres unmarked) [Compound 53]
3. CCCCC/C=C\C/C=C\CCCCCCCCC(CCCCCCCC/C=C\C/C=C\CCCCC)OC(=O)CCCN(C)C [MC3, reference compound]

[reply]
1. 24850 p/s (×10^6)
2. 1286 p/s (×10^6)
3. 9707 p/s (×10^6)
